Recorded AC50 values for a group of compounds are listed next.
# Experiment: Luminescence Cell-Based Dose Retest to Confirm Inhibitors of Cancer Stem Cells. [Related pubchem assays (depositor defined):AID2717, AID2721]
# Format: functional
# Particulars: Homo sapiens
The source made the active and inactive calls.

Compound	AC50
COc1cccc(C(=O)NC(=S)Nc2ccccc2N2CCOCC2)c1	20100 nM (active)
COc1ccc(/C=C/C(=O)c2ccc(NS(=O)(=O)c3ccc(C)cc3)cc2)cc1O	2690 nM (active)
Cc1ccc(C(=O)N2N=C(c3ccc(Br)cc3)CC2c2ccccc2O)cc1 (configuration not stated)	3630 nM (active)
Cc1ccnc2c1ccc1c(C)ccnc12	1540 nM (active)
COc1ccc(-c2cc(C3CCN(c4ccc(C(C)=O)cc4[N+](=O)[O-])CC3)[nH]n2)cc1	2460 nM (active)
O=C(C[C@@H]1C/C=C/CC[C@H](Cc2ccc(F)cc2)C(=O)OC[C@@H](Cc2ccccc2)NC1=O)N[C@H](CO)Cc1ccccc1	956 nM (active)
CCC1C=CC=CC[C@H](C)[C@@H](O)[C@](C)(O)C(=O)[C@@H](C)[C@H](O)[C@@H](C)C(=O)[C@H](C)[C@@H](O)[C@H](C)C=CC(=O)OC2[C@@H](C)C(CC1)OC1(CC[C@@H](C)C(C[C@H](C)O)O1)[C@@H]2C (some centres not stated)	2900 nM (active)

###

# Study system: 72 kDa type IV collagenase (Homo sapiens, UniProt P08253)
# Sequence (P08253 whole entry): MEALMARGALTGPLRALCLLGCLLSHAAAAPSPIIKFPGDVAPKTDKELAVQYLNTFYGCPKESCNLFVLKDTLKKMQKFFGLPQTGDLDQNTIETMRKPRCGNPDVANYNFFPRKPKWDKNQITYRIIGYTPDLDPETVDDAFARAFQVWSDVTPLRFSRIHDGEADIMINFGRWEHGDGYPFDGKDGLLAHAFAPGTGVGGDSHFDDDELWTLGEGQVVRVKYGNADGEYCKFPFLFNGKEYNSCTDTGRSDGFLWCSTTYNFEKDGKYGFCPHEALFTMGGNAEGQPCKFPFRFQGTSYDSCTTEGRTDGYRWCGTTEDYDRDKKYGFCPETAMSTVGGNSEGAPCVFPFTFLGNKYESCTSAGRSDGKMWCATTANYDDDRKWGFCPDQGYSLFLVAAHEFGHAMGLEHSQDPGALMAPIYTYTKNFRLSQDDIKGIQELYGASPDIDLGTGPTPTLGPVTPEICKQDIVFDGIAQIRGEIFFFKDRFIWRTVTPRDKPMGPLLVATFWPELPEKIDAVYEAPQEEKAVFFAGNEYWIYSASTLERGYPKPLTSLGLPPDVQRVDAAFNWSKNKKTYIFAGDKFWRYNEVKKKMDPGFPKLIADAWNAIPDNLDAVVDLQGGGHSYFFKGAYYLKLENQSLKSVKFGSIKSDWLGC
# Experiment: Dose Response validation of uHTS RPN11 inhibitor hits using a MMP-2 Fluorescence assay.
# Assay type: functional
The source made the active and inactive calls.
Readout type: IC50

>>> df
                            compound_string               result
0  Cn1c(=O)oc2cc(S(=O)(=O)N3CCN(c4ccccc4F)CC3)ccc21  > 100 µM (inactive)
1  O=C(O)CCCCCN1C(=O)/C(=C/c2cn(-c3ccccc3)nc2-c2cccs2)SC1=S     10.3 µM (active)
2                        CCN(CC)c1ccc(N)cc1  > 100 µM (inactive)
3  COc1ccc(NC(=O)c2cccc3c(-c4cccnc4)coc23)cc1  > 100 µM (inactive)
4  CC(C)(C)c1nc2ccccc2c2nnc(SCC(=O)Nc3nc4ccccc4s3)n12  > 100 µM (inactive)
5  CCOc1ccc(NC(=O)c2ccc(NC(=O)COC(=O)c3ccc(NC(=O)CC#N)cc3)cc2)cc1  > 100 µM (inactive)

###

# Study system: UniProt:P42574
# Sequence (P42574 whole entry): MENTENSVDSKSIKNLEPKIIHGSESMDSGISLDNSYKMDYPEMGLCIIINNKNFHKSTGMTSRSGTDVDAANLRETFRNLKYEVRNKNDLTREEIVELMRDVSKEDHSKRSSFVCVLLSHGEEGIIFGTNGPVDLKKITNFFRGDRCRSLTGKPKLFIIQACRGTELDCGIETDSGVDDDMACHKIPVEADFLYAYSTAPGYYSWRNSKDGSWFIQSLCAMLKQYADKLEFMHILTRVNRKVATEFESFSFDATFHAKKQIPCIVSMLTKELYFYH
# Type: functional
Calls of active or inactive are those of the source.
Readout type: IC50

In [3]: df
Out[3]:
                            compound_string  readout_type            result
0  O=C(CCCN1C(=O)S/C(=C/c2ccccc2)C1=S)Nc1ccc(C(=O)O)cc1          IC50  23.5 µM (active)
1    NC(=O)c1ccccc1OCC(=O)Nc1ccc(Cl)c(Cl)c1          IC50  37.8 µM (active)
2  O=C(O)c1cccc(NC(=O)c2cccc(S(=O)(=O)N3CCc4ccccc43)c2)c1          IC50  90.5 µM (active)
3                COc1ccc2c(C#N)c3ccccn3c2c1          IC50  54.8 µM (active)
4  COc1ccc(C(=O)c2nccc3cc(OC)c(OC)cc23)cc1OC          IC50  8.21 µM (active)
5         CCOc1cccc(C(=O)Nc2ccc3ccccc3c2)c1          IC50  3.54 µM (active)
6         CCOc1ccc(-n2nc3cc(C)c(N)cc3n2)cc1          IC50  7.93 µM (active)
